Molecular target: Vitamin D3 receptor (Homo sapiens) (UniProt P11473)
Sequence (whole entry): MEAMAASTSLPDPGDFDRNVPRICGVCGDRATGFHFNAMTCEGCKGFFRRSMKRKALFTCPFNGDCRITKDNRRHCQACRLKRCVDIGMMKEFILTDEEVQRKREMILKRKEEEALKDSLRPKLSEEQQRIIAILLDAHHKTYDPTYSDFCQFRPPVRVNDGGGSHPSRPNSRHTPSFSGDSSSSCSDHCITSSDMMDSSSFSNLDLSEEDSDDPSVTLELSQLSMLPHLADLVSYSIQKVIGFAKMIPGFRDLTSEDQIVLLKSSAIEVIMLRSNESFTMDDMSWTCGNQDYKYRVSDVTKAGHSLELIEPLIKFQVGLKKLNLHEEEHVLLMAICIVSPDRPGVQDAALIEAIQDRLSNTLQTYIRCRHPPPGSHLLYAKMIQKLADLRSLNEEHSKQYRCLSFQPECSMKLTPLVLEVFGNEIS
Experiment: Antagonist activity at VDR in human HL60 cells assessed as effect on 1,25-(OH)2-D3-induced cell differentiation at 1 uM by NBT assay
Format: functional, cell-based
Conditions: HL-60
Calls of active or inactive are those of the source. The calls are words filed in the database; no cut-off is given here.
test readout: Activity

>  <entry smiles>
C=C1/C(=C\C=C2/CCC[C@]3(C)[C@@H]([C@H](C)C[C@H]4C[C@@](C)(O)C(=O)N4CCc4cc(OC)cc(OC)c4)CC[C@@H]23)C[C@@H](O)C[C@@H]1O

>  <Activity>
inactive

$$$$
>  <entry smiles>
C=C1/C(=C\C=C2/CCC[C@]3(C)[C@@H]([C@H](C)C[C@H]4C[C@](C)(O)C(=O)N4Cc4cc(O)cc(O)c4)CC[C@@H]23)C[C@@H](O)C[C@@H]1O

>  <Activity>
inactive

$$$$
>  <entry smiles>
C=C1/C(=C\C=C2/CCC[C@]3(C)[C@@H]([C@H](C)C[C@H]4C[C@@](C)(O)C(=O)N4CCCc4cc(C(F)(F)F)cc(C(F)(F)F)c4)CC[C@@H]23)C[C@@H](O)C[C@@H]1O

>  <Activity>
inactive

$$$$
>  <entry smiles>
C=C1/C(=C\C=C2/CCC[C@]3(C)[C@@H]([C@H](C)C[C@@H]4C[C@](C)(O)C(=O)N4CCCc4cc(C(F)(F)F)cc(C(F)(F)F)c4)CC[C@@H]23)C[C@@H](O)C[C@@H]1O

>  <Activity>
inactive

$$$$
>  <entry smiles>
C=C1/C(=C\C=C2/CCC[C@]3(C)[C@@H]([C@H](C)C[C@@H]4C[C@](C)(O)C(=O)N4CCc4cc(OC)cc(OC)c4)CC[C@@H]23)C[C@@H](O)C[C@@H]1O

>  <Activity>
inactive

$$$$

Please give the measured Activity for this compound: C=C1/C(=C\C=C2/CCC[C@]3(C)[C@@H]([C@H](C)C[C@@H]4C[C@@](C)(O)C(=O)N4CCCc4cc(C(F)(F)F)cc(C(F)(F)F)c4)CC[C@@H]23)C[C@@H](O)C[C@@H]1O
inactive

Please give the measured Activity for this compound: C=C1/C(=C\C=C2/CCC[C@]3(C)[C@@H]([C@H](C)C[C@H]4C[C@](C)(O)C(=O)N4CCCc4cc(C(F)(F)F)cc(C(F)(F)F)c4)CC[C@@H]23)C[C@@H](O)C[C@@H]1O
inactive

Please give the measured Activity for this compound: C=C1/C(=C\C=C2/CCC[C@]3(C)[C@@H]([C@H](C)C[C@@H]4C[C@@](C)(O)C(=O)N4CCc4cc(OC)cc(OC)c4)CC[C@@H]23)C[C@@H](O)C[C@@H]1O
inactive

Data credit: ChEMBL document CHEMBL1155889
